experimental details: Effective concentration for 50% protection of HIV-induced cytopathogenicity in MT-4 cells on the MTT assay
Each entry below carries its recorded pEC50.
Worth noting: pEC50 values are minus log10 of concentrations stated in mol/L.

{"columns": ["compound", "number"],
 "data": [
  ["NCCCC[C@@H]1NC(=O)[C@H](CCCNC(N)=O)NC(=O)[C@H](Cc2ccc(O)cc2)NC(=O)[C@@H](NC(=O)[C@@H](NC(=O)[C@H](CCCN=C(N)N)NC(=O)[C@@H](N)CCCN=C(N)N)c2ccc3ccccc3c2)CSSC[C@@H](C(=O)N[C@@H](CCCN=C(N)N)C(N)=O)NC(=O)[C@H](CCCNC(N)=O)NC(=O)[C@H](CCCN=C(N)N)NC(=O)[C@H](Cc2ccc(O)cc2)NC(=O)[C@@H]2CCCN2C(=O)[C@@H](CCCNC(N)=O)NC1=O [Derivative of T140 peptide]", 9.40]
]}

Now let's try a different one.
Which pEC50 is reported for this compound? NCCCC[C@@H]1NC(=O)[C@H](CCCNC(N)=O)NC(=O)[C@H](Cc2ccc(O)cc2)NC(=O)[C@@H](NC(=O)[C@@H](NC(=O)[C@H](CCCN=C(N)N)NC(=O)[C@@H](N)CCCN=C(N)N)c2ccc3ccccc3c2)CSSC[C@@H](C(=O)N[C@@H](CCCN=C(N)N)C(=O)O)NC(=O)[C@H](CCCNC(N)=O)NC(=O)[C@H](CCCN=C(N)N)NC(=O)[C@H](Cc2ccc(O)cc2)NC(=O)[C@@H]2CCCN2C(=O)[C@@H](CCCNC(N)=O)NC1=O [Derivative of T140 peptide]
9.30
